Below, each of the binders is paired with its reported Ub-ELuc luciferase, Dark, Dox 75 ng/mL value.
TARGET: Cry2 PHR (L348F)-p65AD-NLSx2 fusion construct as released from the TetR (I194T, 1-206)-CIB1 (-NLS)-T2A-Cry2 PHR (L348F)-p65AD-NLSx2 fusion construct
Sequence (Q96524 other isoform, or with tags, fused parts or gaps L348F I194T L348F L348F I194T L348F): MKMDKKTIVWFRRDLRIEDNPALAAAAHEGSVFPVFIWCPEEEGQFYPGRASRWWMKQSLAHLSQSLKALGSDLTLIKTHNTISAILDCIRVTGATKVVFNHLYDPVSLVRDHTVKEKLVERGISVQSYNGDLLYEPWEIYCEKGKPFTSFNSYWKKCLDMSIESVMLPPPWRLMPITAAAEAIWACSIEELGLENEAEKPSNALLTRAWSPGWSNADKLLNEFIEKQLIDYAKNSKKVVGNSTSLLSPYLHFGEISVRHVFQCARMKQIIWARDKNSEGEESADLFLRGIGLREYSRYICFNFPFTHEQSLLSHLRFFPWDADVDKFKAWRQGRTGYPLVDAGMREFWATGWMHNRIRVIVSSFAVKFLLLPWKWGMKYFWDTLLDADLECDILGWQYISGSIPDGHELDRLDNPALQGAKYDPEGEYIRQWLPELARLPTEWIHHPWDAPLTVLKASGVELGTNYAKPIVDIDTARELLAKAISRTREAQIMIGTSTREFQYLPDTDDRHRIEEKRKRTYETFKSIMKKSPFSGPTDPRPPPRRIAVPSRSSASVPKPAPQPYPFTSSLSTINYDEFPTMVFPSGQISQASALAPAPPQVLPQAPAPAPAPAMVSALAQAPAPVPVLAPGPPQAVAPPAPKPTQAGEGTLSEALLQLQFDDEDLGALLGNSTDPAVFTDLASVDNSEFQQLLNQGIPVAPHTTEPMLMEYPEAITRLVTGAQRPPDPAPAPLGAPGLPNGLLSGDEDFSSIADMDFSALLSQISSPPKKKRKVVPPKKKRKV
MEASUREMENT_PROTOCOL: cell-based or functional assay
OBSERVABLE: Ub-ELuc luciferase, Dark, Dox 75 ng/mL (relative)

{"columns": ["BINDER", "READOUT_NUMBER"],
 "data": [
  ["rTetR (I194T, S2 mutation, 1-206)-CIB1 (-NLS) from the T2A construct (protein, part only; not given: Leftover T2A residues, part only) chain, part: MARLDKSKVINSALELLNGVGIEGLTTRKLAQKLGVEQPTLYWHVKNKRALLDALPIEMLDRHHTHFCPLEGESWQDFLRNNAKSFRCALLSHRDGAKVHLGTRPTEKQYETLENQLAFLCQQGFSLENALYALSAVGHFTLGCVLEEQEHQVAKEERETPTTDSMPPLLRQAIELFDRQGAEPAFLFGLELITCGLEKQLKCESGSPKKKHMEFNGAIGGDLLLNFPDMSVLERQRAHLKYLNPTFDSPLAGFFADSSMITGGEMDSYLSTAGLNLPMMYGETTVEGDSRLSISPETTLGTGNFKAAKFDTETKDCNEAAKKMTMNRDDLVEEGEEEKSKITEQNNGSTKSIKKMKHKAKKEENNFSNDSSKVTKELEKTDYI", 0.2],
  ["rTetR (I194T, V10 mutation, 1-206)-CIB1 (-NLS) from the T2A construct (protein, part only; not given: Leftover T2A residues, part only) chain, part: MARLDKSKVINSALELLNGVGIEGLTTRKLAQKLGVEQPTLYWHVKNKRALLDALPIEMLDRHHTHSCPLEGESWQDFLRNNAKSYRCALLSHRDGAKVHLGTRPTEKQYETLENQLAFLCQQGFSLENALYALSAVGHFTLGCVLEEQEHQVAKEERETPTTDSMPPLLKQAIELFDRQGAEPAFLFGLELITCGLEKQLKCESGSPKKKHMEFNGAIGGDLLLNFPDMSVLERQRAHLKYLNPTFDSPLAGFFADSSMITGGEMDSYLSTAGLNLPMMYGETTVEGDSRLSISPETTLGTGNFKAAKFDTETKDCNEAAKKMTMNRDDLVEEGEEEKSKITEQNNGSTKSIKKMKHKAKKEENNFSNDSSKVTKELEKTDYI", 1.2]
]}
